# ASSAY SYSTEM: C3b (biotinylated, captured site-specifically on a streptavidin chip) (UniProt P01024)
# PROCEDURE TEXT: SPR (Biacore 3000), single-cycle kinetics, biotinylated C3b on streptavidin chip, peptide as analyte, 1:1 Langmuir fit
Bridge positions count the residues as written; N and C are the ends. Square brackets hold non-standard residues; d marks the D form. Ends that are not written are not given here. Trp(1-Me) = Cn1cc(C[C@H](N)C(=O)O)c2ccccc21; NMeI = CC[C@H](C)[C@H](NC)C(=O)O; Sar = CNCC(=O)O
MEASURE: kon (M⁻¹ s⁻¹)
State just the number; it will be interpreted in M⁻¹ s⁻¹.

Some solved entries appear below for comparison.
BINDER | RESULT UNIT | kon
TICV[Trp(1-Me)]QDW[Sar]AHRC[NMeI]-NH2 (disulfide 3-13; N-terminus assumed; SMILES CC[C@H](C)[C@H](NC(=O)[C@@H](N)[C@@H](C)O)C(=O)N[C@H]1CSSC[C@@H](C(=O)N(C)[C@H](C(N)=O)[C@@H](C)CC)NC(=O)[C@H](CCCNC(=N)N)NC(=O)[C@H](Cc2c[nH]cn2)NC(=O)[C@H](C)NC(=O)CN(C)C(=O)[C@H](Cc2c[nH]c3ccccc23)NC(=O)[C@H](CC(=O)O)NC(=O)[C@H](CCC(N)=O)NC(=O)[C@H](Cc2cn(C)c3ccccc23)NC(=O)[C@H](C(C)C)NC1=O) [Peptide 8: Thr-Ile-[Cys-Val-Trp(Me)-Gln-Asp-Trp-Sar-Ala-His-Arg-Cys]-mIle-NH2] | M⁻¹ s⁻¹ | 1.2e+06
Me-ICVWQDW[Sar]AHRC[NMeI]-NH2 (disulfide 2-12; not fully specified (residue 4); printed as Me-Ile-[Cys-Val-Trp(Me)-Gln-Asp-Trp-Sar-Ala-His-Arg-Cys]-mIle-NH2) [Peptide 1: Me-Ile-[Cys-Val-Trp(Me)-Gln-Asp-Trp-Sar-Ala-His-Arg-Cys]-mIle-NH2] | M⁻¹ s⁻¹ | 1.3e+06
WICV[Trp(1-Me)]QDW[Sar]AHRC[NMeI]-NH2 (disulfide 3-13; N-terminus assumed; SMILES CC[C@H](C)[C@H](NC(=O)[C@@H](N)Cc1c[nH]c2ccccc12)C(=O)N[C@H]1CSSC[C@@H](C(=O)N(C)[C@H](C(N)=O)[C@@H](C)CC)NC(=O)[C@H](CCCNC(=N)N)NC(=O)[C@H](Cc2c[nH]cn2)NC(=O)[C@H](C)NC(=O)CN(C)C(=O)[C@H](Cc2c[nH]c3ccccc23)NC(=O)[C@H](CC(=O)O)NC(=O)[C@H](CCC(N)=O)NC(=O)[C@H](Cc2cn(C)c3ccccc23)NC(=O)[C@H](C(C)C)NC1=O) [Peptide 7: Trp-Ile-[Cys-Val-Trp(Me)-Gln-Asp-Trp-Sar-Ala-His-Arg-Cys]-mIle-NH2] | M⁻¹ s⁻¹ | 1.6e+06
RICV[Trp(1-Me)]QDW[Sar]AHRC[NMeI]-NH2 (disulfide 3-13; N-terminus assumed; SMILES CC[C@H](C)[C@H](NC(=O)[C@@H](N)CCCNC(=N)N)C(=O)N[C@H]1CSSC[C@@H](C(=O)N(C)[C@H](C(N)=O)[C@@H](C)CC)NC(=O)[C@H](CCCNC(=N)N)NC(=O)[C@H](Cc2c[nH]cn2)NC(=O)[C@H](C)NC(=O)CN(C)C(=O)[C@H](Cc2c[nH]c3ccccc23)NC(=O)[C@H](CC(=O)O)NC(=O)[C@H](CCC(N)=O)NC(=O)[C@H](Cc2cn(C)c3ccccc23)NC(=O)[C@H](C(C)C)NC1=O) [Peptide 6: Arg-Ile-[Cys-Val-Trp(Me)-Gln-Asp-Trp-Sar-Ala-His-Arg-Cys]-mIle-NH2] | M⁻¹ s⁻¹ | 1.7e+06

Continue with the binder presented below.
QUERY: For AICVWQDWGAHRCI (mAla (N-methyl-Ala) at Xaa0; Trp(Me) at position 4; Sar at position 8; mIle at position 13; C-terminal -NH2; cyclic via Cys2-Cys12 disulfide (compstatin position numbering)) [Peptide 13: mAla-Ile-[Cys-Val-Trp(Me)-Gln-Asp-Trp-Sar-Ala-His-Arg-Cys]-mIle-NH2] , what is its reported kon?
RESULT: 1.4e+06
